All values here come from the supplement of paper PMC7877785.

- Experiment description: self-splicing fitness, log relative to wild type (ln ratio); higher = more splicing; Tetrahymena group I intron in knt gene, E. coli kanamycin selection, DiMSum; sequences stand for … in CUCUCU…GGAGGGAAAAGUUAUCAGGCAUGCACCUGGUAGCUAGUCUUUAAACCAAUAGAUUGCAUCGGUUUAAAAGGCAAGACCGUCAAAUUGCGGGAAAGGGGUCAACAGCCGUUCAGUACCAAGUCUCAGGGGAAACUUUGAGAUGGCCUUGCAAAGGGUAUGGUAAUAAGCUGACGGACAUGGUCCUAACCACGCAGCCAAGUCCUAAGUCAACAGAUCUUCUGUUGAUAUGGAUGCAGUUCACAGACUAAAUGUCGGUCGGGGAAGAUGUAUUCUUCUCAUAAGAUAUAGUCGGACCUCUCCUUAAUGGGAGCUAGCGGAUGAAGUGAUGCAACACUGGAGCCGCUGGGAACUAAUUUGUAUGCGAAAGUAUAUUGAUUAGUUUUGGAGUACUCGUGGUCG;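 also: selection with 25 µg/mL kanamycin versus none on LB agar overnight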
- Protocol conditions: 37 °C
Quantity: self-splicing fitness (ln)

> print(dat)
        primary.sequence                    quantity  observed.value
 1  CGGAAGCAAUAUUACGUUAU  self-splicing fitness (ln)            -2.3
 2  AUCCAGCAAUAUUACGCUAA  self-splicing fitness (ln)           -1.13
 3  GUGUAGCAAUAUUACGACUA  self-splicing fitness (ln)          0.0605
 4  GUCGAGCAAUAUUACGUUAU  self-splicing fitness (ln)           -2.13
 5  CCCCAGCAAUAUUACGAAUC  self-splicing fitness (ln)           -2.49
 6  UUCCAGCAAUAUUACGAUGA  self-splicing fitness (ln)          0.0453
 7  UACGAGCAAUAUUACGACAA  self-splicing fitness (ln)            -1.2
 8  GGAGAGCAAUAUUACGAUUA  self-splicing fitness (ln)          -0.884
 9  AAGGAGCAAUAUUACGUUCA  self-splicing fitness (ln)         -0.0364
10  UCACAGCAAUAUUACGGAUA  self-splicing fitness (ln)           -1.47
11  CUUCAGCAAUAUUACGUGGC  self-splicing fitness (ln)           -2.08
12  AUUAAGCAAUAUUACGUGAC  self-splicing fitness (ln)           -1.75
13  GUAGAGCAAUAUUACGAGCU  self-splicing fitness (ln)           -1.66
14  GGUUAGCAAUAUUACGUCCC  self-splicing fitness (ln)           -2.36
15  CCUGAGCAAUAUUACGAGGG  self-splicing fitness (ln)           -2.22
16  GAACAGCAAUAUUACGGUCG  self-splicing fitness (ln)          -0.372
17  CAGGAGCAAUAUUACGUGGU  self-splicing fitness (ln)           -3.15
18  ACCCAGCAAUAUUACGAUAA  self-splicing fitness (ln)         -0.0251
19  CGAGAGCAAUAUUACGCCGG  self-splicing fitness (ln)           -1.27
20  CUCGAGCAAUAUUACGCUUA  self-splicing fitness (ln)           -2.22
21  GUCCAGCAAUAUUACGGUCA  self-splicing fitness (ln)         -0.0837
22  AGAUAGCAAUAUUACGUGGU  self-splicing fitness (ln)           -2.27
23  ACCAAGCAAUAUUACGGCAC  self-splicing fitness (ln)          -0.913
24  UGAGAGCAAUAUUACGGGAG  self-splicing fitness (ln)           -1.93
25  AAUAAGCAAUAUUACGAAAA  self-splicing fitness (ln)           -1.76
26  GGCAAGCAAUAUUACGCCUC  self-splicing fitness (ln)           -1.34
27  UGAUAGCAAUAUUACGCACU  self-splicing fitness (ln)          -0.218
28  UUCUAGCAAUAUUACGUUAA  self-splicing fitness (ln)           -1.32
29  UACGAGCAAUAUUACGUUAU  self-splicing fitness (ln)           -2.24
30  GCAGAGCAAUAUUACGUGAU  self-splicing fitness (ln)            -1.5
31  UGUCAGCAAUAUUACGAGCG  self-splicing fitness (ln)            0.59
32  CCUAAGCAAUAUUACGUAAG  self-splicing fitness (ln)           -0.35
33  GAUUAGCAAUAUUACGCUGA  self-splicing fitness (ln)           -2.53
34  GGGGAGCAAUAUUACGCAGU  self-splicing fitness (ln)           -1.35
35  ACCCAGCAAUAUUACGUCCG  self-splicing fitness (ln)          -0.701
36  AUCCAGCAAUAUUACGGUAA  self-splicing fitness (ln)          -0.567
37  UCACAGCAAUAUUACGUGCC  self-splicing fitness (ln)         0.00553
38  CCAUAGCAAUAUUACGUCAA  self-splicing fitness (ln)          -0.857
39  AAUGAGCAAUAUUACGGUUG  self-splicing fitness (ln)           -2.81
40  CCCCAGCAAUAUUACGAGGU  self-splicing fitness (ln)           -2.23
41  AUUUAGCAAUAUUACGUAGU  self-splicing fitness (ln)          -0.851
42  UAUUAGCAAUAUUACGUGGA  self-splicing fitness (ln)         -0.0772
43  UUAGAGCAAUAUUACGCUAG  self-splicing fitness (ln)           0.349
44  UGGCAGCAAUAUUACGACAC  self-splicing fitness (ln)          -0.701
45  CUACAGCAAUAUUACGGUCC  self-splicing fitness (ln)           -2.15
46  AGAGAGCAAUAUUACGGCCG  self-splicing fitness (ln)           -1.39
47  CUGUAGCAAUAUUACGUUUC  self-splicing fitness (ln)           -2.99
48  AAAGAGCAAUAUUACGAGGG  self-splicing fitness (ln)           -2.34
49  GACAAGCAAUAUUACGGCGU  self-splicing fitness (ln)          -0.154
50  CCAAAGCAAUAUUACGUCCA  self-splicing fitness (ln)           -2.19
51  GUAGAGCAAUAUUACGCUAG  self-splicing fitness (ln)           0.329
52  GCUCAGCAAUAUUACGUGUC  self-splicing fitness (ln)          -0.662
53  ACGAAGCAAUAUUACGGGUG  self-splicing fitness (ln)           -1.36
54  UUUCAGCAAUAUUACGGAGA  self-splicing fitness (ln)           -1.13
55  UCACAGCAAUAUUACGUAUU  self-splicing fitness (ln)           -2.54
56  GCCCAGCAAUAUUACGUAGU  self-splicing fitness (ln)         -0.0932
57  GCGUAGCAAUAUUACGUCUG  self-splicing fitness (ln)           -3.38
58  CCGAAGCAAUAUUACGGAAA  self-splicing fitness (ln)           -3.49
59  UCGAAGCAAUAUUACGCGGU  self-splicing fitness (ln)           -2.48
60  AUAGAGCAAUAUUACGUUCC  self-splicing fitness (ln)           -1.53
61  AUCGAGCAAUAUUACGAUCG  self-splicing fitness (ln)           -3.06
